These entries and their values trace back to PubChem BioAssay (NCI).

Item-by-item account of growth
test system: NCI-H23 lung; test: NCI-60 one-dose screen, 48 h (100 = growth as untreated, 0 = no growth, -100 = all killed); conditions: 10 µM unless noted
About 83,000 compounds went through this panel and 20% of them were active in at least one assay; those are over-represented in the sample as a whole.
The reply should be a number in %, with the unit left off.

>  <compoundStructure>
CC1(C)CC[C@]2(C(=O)O)CC[C@]3(C)C(=CC[C@@H]4[C@@]5(C)CC/C(=N\OCCC#N)C(C)(C)[C@@H]5CC[C@]43C)[C@@H]2C1

>  <displayUnit>
%

>  <growth>
98

$$$$
>  <compoundStructure>
CS(=O)(=O)Nc1cc(-c2ccc3ncc(C#N)c(Nc4cccc(Cl)c4F)c3c2)cnc1Cl

>  <displayUnit>
%

>  <growth>
8.28

$$$$
>  <compoundStructure>
Nn1c(N/N=C/c2nc3ccccc3s2)n[nH]c1=S

>  <displayUnit>
%

>  <growth>
91.8

$$$$

Now consider the entry below.
Simply: "NS(=O)(=O)c1ccc(Nc2nc(Nc3ccccc3)nc3nnc(SCC(=O)NC4CCCCC4)n23)cc1" , NCI-H23 lung, growth = 109

====

test system: MCF7 breast; experiment: NCI-60 one-dose screen, 48 h (100 = growth as untreated, 0 = no growth, -100 = all killed); conditions: 10 µM unless noted
About 83,000 compounds went through this panel and 20% of them were active in at least one assay; those are over-represented in the sample as a whole.
Is growth at least 10%? Then Fulfilled. If not, Not fulfilled.

Some solved entries appear below for comparison.
>  <molecule>
CN1c2ccccc2Sc2cc(C=C(C#N)C#N)ccc21

>  <systemName>
MCF7 breast

>  <answerLabel>
Fulfilled

$$$$
>  <molecule>
COc1ccc2c(c1)c(CC(=O)[Se]CCC#N)c(C)n2C(=O)c1ccc(Cl)cc1

>  <systemName>
MCF7 breast

>  <answerLabel>
Not fulfilled

$$$$
>  <molecule>
CC1(C)NCCC[C@]2(C)[C@H]3C/C(=N\O)C4[C@@H]5C[C@@](C)(CO)CC[C@]5(C)CC[C@@]4(C)[C@]3(C)CC[C@@H]12 (stereo partly drawn)

>  <systemName>
MCF7 breast

>  <answerLabel>
Fulfilled

$$$$
>  <molecule>
Cc1cccc2c3c(sc12)C(c1ccc(F)cc1)C(C#N)=C(/N=C/c1ccc(Cl)cc1)O3 (stereo not drawn)

>  <systemName>
MCF7 breast

>  <answerLabel>
Fulfilled

$$$$
>  <molecule>
COc1cc(OC)c(/C=C/S(=O)(=O)Cc2ccc(OC)c(NCC(=O)NO)c2)c(OC)c1

>  <systemName>
MCF7 breast

>  <answerLabel>
Fulfilled

$$$$

IN: Exam item: decide whether the reported growth for "COc1cc(OC)c(S(N)(=O)=O)cc1C(=O)/C=C/c1ccc(Cl)cc1" is at least 10%.
OUT: Not fulfilled

IN: Identify whether the reported growth of the following molecule is 10% or greater: "CCCCCc1ccc(S(=O)(=O)Nc2cc(-c3csc(NC(=O)CN4CCN(C)CC4)n3)ccc2OC)cc1"
OUT: Not fulfilled

IN: API: above_or_equal(metric=growth, cutoff=10%) for item "C=C(C)[C@@H]1CC[C@]2(COP(=O)(OCC)OCC)CC[C@]3(C)[C@H](CC[C@@H]4[C@@]5(C)CCCNC(C)(C)[C@@H]5CC[C@]43C)[C@@H]12"
OUT: Fulfilled

====

system: NCI-H522 lung; test: NCI-60 one-dose screen, 48 h; settings: 10 µM unless noted
Compounds without any hit were thinned out: in the full panel of roughly 83,000, 20% have a hit. Calls of active or inactive are those of the source. Rule for the calls: active = growth percent below 10; inactive = the rest.
One label from this list, please: y for active, n for inactive

IN: Assay outcome for "COc1ccc(NC(=O)CSc2nnc(-c3ccc4nc(-c5ccccc5)[nH]c4c3)o2)cc1" : what was it?
OUT: n

IN: Recorded call for COc1ccc(CCOc2cc3c(cc2OC)CCN(C(=O)NCc2cocn2)C3c2ccc(C)cc2C)cc1 (stereo not given) ?
OUT: y

====

System: HT29 colon
Experiment: NCI-60 one-dose screen, 48 h
Conditions: 10 µM unless noted
Experimental: Growth inhibition of the HT29 human tumor cell line is measured as a screen for anti-cancer activity. Cells are grown in 96 well plates and exposed to the test compound for 48 hours. Compounds are tested at a single concentration, which is 10^-5 M for most compounds. The reported endpoint is percent growth (GI% or GIPRCNT), where numbers from 0 - 100% represent growth inhibition, and numbers from -100% - 0 represent cell death. For example, a value of 40 represents 60% growth inhibition. […]
Compounds without any hit were thinned out: in the full panel of roughly 83,000, 20% have a hit. Calls of active or inactive are those of the source. The calls were made as follows: active = growth percent below 10; inactive = the rest.
Select the matching outcome among 1 for active, 0 for inactive

Example cases with answers are listed next.
>  <compound>
CN1CCC(n2cc(Nc3ncc4c(=O)n(-c5c(Cl)cccc5Cl)cc(Br)c4n3)cn2)CC1

>  <answerLabel>
1

$$$$
>  <compound>
COc1ccc(CCN2C(=O)CSC2=S)cc1

>  <answerLabel>
0

$$$$

IN: Lab log entry: "Cn1cc(-c2nnc(N)nc2-c2c[nH]c3ccc(F)cc23)c2cc(F)ccc21" — outcome as called in the assay?
OUT: 0

IN: GET /call?item= "O=C(CSc1nc2ccccc2c(=O)n1-c1ccccc1)Nc1cccc(C(=O)/C=C/c2ccccc2Cl)c1" returns the recorded outcome of this test.
OUT: 0

IN: I would be grateful if you could indicate the recorded call for "NC(N)=Nc1ccc(Oc2cccc(NC(N)=Nc3ccc(Cl)c(C(F)(F)F)c3)c2)cc1" .
OUT: 0

IN: Identify the outcome logged in this assay for the compound shown: COc1ccc(/C=N/NC2=NC3C(S2)N(C)C(=O)N3C)cc1 (centres undefined)
OUT: 1

IN: In this assay, the call recorded for "COC(=O)c1ccc(NC2=C/C(=N/S(=O)(=O)c3ccc(C(=O)O)cc3)c3ccccc3C2=O)cc1" was what?
OUT: 0

====

tested on: NCI-H226 lung; test: NCI-60 one-dose screen, 48 h (100 = growth as untreated, 0 = no growth, -100 = all killed); settings: 10 µM unless noted
The panel holds about 83,000 compounds, 20% with a hit somewhere; the sample as a whole holds those more often.
metric: growth (%)
The figure you give is taken to be in %; do not add the unit.

Examples with their reported growth follow.
>  <compound>
O=C(O)c1ccc(-n2cc(CNc3cc(F)c(F)c(F)c3)c(-c3cccc(F)c3)n2)cc1

>  <metric>
growth

>  <endpointValue>
93.9

$$$$
>  <compound>
C#Cc1nc(C(=O)NCCC(=O)Nc2ccc(NC(=O)c3ccc(/C=C/C(=O)c4nccn4C)cc3)cc2)cs1

>  <metric>
growth

>  <endpointValue>
74.9

$$$$
>  <compound>
COC(=O)c1[nH]nc2c1C1(C(=O)N(C)c3ccccc31)C(C#N)=C(N)O2 (stereo not drawn)

>  <metric>
growth

>  <endpointValue>
99.2

$$$$
>  <compound>
CNC(=O)c1c(NC(=O)c2ccccc2C(F)(F)F)sc2c1CCC(=O)C2

>  <metric>
growth

>  <endpointValue>
64.2

$$$$
>  <compound>
Oc1cccc2ccc(-c3nnc(SCc4ccc(O)c5ncccc45)n3-c3ccccc3)nc12

>  <metric>
growth

>  <endpointValue>
39.5

$$$$
>  <compound>
COc1cc(-c2nc(-c3ccccc3)[nH]c2-c2ccnc(NCCCNS(=O)(=O)c3cccc(F)c3)n2)ccc1Cl

>  <metric>
growth

>  <endpointValue>
42.1

$$$$
>  <compound>
CCNC(=O)N1CCc2cc(OC)c(OCCc3ccc(OC)c(N)c3)cc2C1c1ccc(C)cc1C (stereo not drawn)

>  <metric>
growth

>  <endpointValue>
42.9

$$$$
>  <compound>
O=C(CN1CCN(c2cc(=O)[nH]c3ccc(F)cc23)CC1)Nc1ccc(Cl)cc1

>  <metric>
growth

>  <endpointValue>
16.5

$$$$
>  <compound>
O=S(=O)(NCCNc1nccc(-n2cnc3ccccc32)n1)c1ccc(Br)cc1

>  <metric>
growth

>  <endpointValue>
76.5

$$$$
>  <compound>
Nc1ccccc1NC(=O)c1ccc(NC(=O)C/C=C/c2cccnc2)cc1

>  <metric>
growth

>  <endpointValue>
46.6

$$$$

Attention now turns to another entry.
NCI-H226 lung assay, compound "COc1ccc([C@H]2c3[nH]c4ccccc4c3C[C@H]3C(=O)N(C4CCN(Cc5c(Cl)cccc5Cl)CC4)CC(=O)N23)c(OC)c1" , recorded growth = 92.9

====

tested on: NCI-H226 lung; assay: NCI-60 one-dose screen, 48 h; details: 10 µM unless noted
Compounds without any hit were thinned out: in the full panel of roughly 83,000, 20% have a hit. The source made the active and inactive calls. The calls were made as follows: active = growth percent below 10; inactive = the rest.
Respond using exactly one of the listed classes: active, inactive

Please review the following examples before continuing.
>  <compound>
CC[C@@H](CO)Nc1ccc2ncc(C#Cc3cncc(C(=O)Nc4ccc(CN5CCN(C)CC5)c(C(F)(F)F)c4)c3)n2n1

>  <answerLabel>
active

$$$$
>  <compound>
COc1ccc([C@H]2[C@H](O)C(=O)N2c2cc(OC)c(OC)c(OC)c2)cc1F

>  <answerLabel>
inactive

$$$$

IN: Hi team, can someone confirm the assay call for "O=C(CNc1nc(-c2cccc([N+](=O)[O-])c2)cs1)Nc1cccc(Cl)c1" ?
OUT: inactive
